Biological target: Aromatase (Homo sapiens)
Experiment: qHTS assay to identify aromatase inhibitors (AID 743083); also: nearly all actives have a fitted effect of over 55% in size
Conditions: MCF-7 aro ERE, testosterone-driven ERE luciferase, 24 h; series mostly up to 70.3 µM
Results filed as inconclusive are left out. The source made the active and inactive calls. Calls follow the shape of the dose curve; as a rule, active = well fitted inhibition curve with a large enough effect in the repeat runs; inconclusive = weak or mixed curves; inactive = no such curve, though single readings can be large or run the other way.
Select the correct class. Options are YES for active, NO for inactive and nothing else.

INSERT INTO assay_data (compound, studysystem, classname) VALUES
  ('C(=C/c1ccccc1)/c1ccccc1', 'Aromatase (Homo sapiens)', 'NO'),
  ('CC(C)N=C(N)/N=C(\N)Nc1ccc(Cl)cc1', 'Aromatase (Homo sapiens)', 'NO'),
  ('O=C(O)CC(=O)O', 'Aromatase (Homo sapiens)', 'NO'),
  ('O[C@@H](c1cc(C(F)(F)F)nc2c(C(F)(F)F)cccc12)[C@H]1CCCCN1', 'Aromatase (Homo sapiens)', 'YES');

Moving on to the next compound.
Task: What call does the record list for `CCCCCCOc1cc(C)c(O)c(C)c1C` ?
Result: YES
